System: Klebsiella pneumoniae SHV-18, OXA-2, OKP-6 (ATCC 700603)
Assay: MIC, CLSI broth microdilution, beta-lactam with or without BLI
Type: cell-based
Conditions: BLI at fixed 4 μg/ml; K. pneumoniae ATCC 700603
Structures can show the parent of a compound that is named as a salt.
Measured parameter: MIC of cefixime in presence of BLI

Study these solved cases before continuing.
CC1=C[C@@H](C(N)=O)N2C[C@@H]1N(O[C@H](F)C(=O)O)C2=O [Example 33, lithium salt]; ≤0.06 µg/mL
CC1=C[C@@H](C(N)=O)N2C[C@@H]1N(O[C@@H](F)C(=O)O)C2=O [Example 34, lithium salt]; ≤0.06 µg/mL

Then this compound:
Looking up CC1=C[C@@H]2CN(C(=O)N2O[C@H](F)C(=O)O)[C@@H]1C(N)=O [Example 4, lithium salt] , I see its MIC of cefixime in presence of BLI listed as ≤0.06 µg/mL

###

Target: OXA-48 (Class D beta-lactamase) (Klebsiella pneumoniae)
Sequence (Q6XEC0 whole entry, looked up, species assumed): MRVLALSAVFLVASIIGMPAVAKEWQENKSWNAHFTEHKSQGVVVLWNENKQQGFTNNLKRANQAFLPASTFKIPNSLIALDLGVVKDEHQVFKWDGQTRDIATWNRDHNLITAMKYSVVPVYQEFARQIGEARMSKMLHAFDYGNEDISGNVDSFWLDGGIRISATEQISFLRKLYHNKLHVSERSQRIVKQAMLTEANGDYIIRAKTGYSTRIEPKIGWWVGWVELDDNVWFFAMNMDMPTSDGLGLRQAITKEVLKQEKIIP
Experiment: Inhibition of beta-lactamase enzymes (nitrocefin hydrolysis), OXA-48
Conditions: read-out: Class D OXA-48 60 min IC50, nitrocefin 100 μM
Structures can show the parent of a compound that is named as a salt.
Measured parameter: pIC50
Schema: pIC50 number; meaning minus log10 of the concentration expressed in molar units.

Looking up CC1=C[C@@H]2CN(C(=O)N2O[C@@H](F)C(=O)O)[C@@H]1C(=O)NOC[C@@H]1CCC(=O)N1 [Example 72, lithium salt] , I see its pIC50 listed as 6.96

Looking up CC1=C[C@@H]2CN(C(=O)N2O[C@@H](F)C(=O)O)[C@@H]1C(=O)NCc1ncco1 [Example 68, lithium salt] , I see its pIC50 listed as 7.11

Looking up CC1=C[C@@H](C(N)=O)N2C[C@@H]1N(O[C@H](F)C(=O)O)C2=O [Example 33, lithium salt] , I see its pIC50 listed as 7.11

Looking up CC1=C[C@@H]2CN(C(=O)N2O[C@@H](F)C(=O)O)[C@@H]1C(=O)NCc1cnccn1 [Example 69, lithium salt] , I see its pIC50 listed as 6.96

Looking up CC1=C[C@@H]2CN(C(=O)N2O[C@@H](F)C(=O)O)[C@@H]1C(=O)NCC#N [Example 82, lithium salt] , I see its pIC50 listed as 7.55

Looking up CC1=C[C@@H]2CN(C(=O)N2OC(F)C(=O)O)[C@@H]1C(=O)NCc1cnccn1 (stereo partly drawn) [Example 30, lithium salt] , I see its pIC50 listed as 6.85

Looking up CC1=C[C@@H]2CN(C(=O)N2O[C@@H](F)C(=O)O)[C@@H]1C(=O)NCNS(N)(=O)=O [Example 89, lithium salt] , I see its pIC50 listed as 6.82

###

Target: OXA-48 (Class D beta-lactamase) (Klebsiella pneumoniae)
Experiment: Inhibition of beta-lactamase enzymes (nitrocefin hydrolysis), OXA-48
Conditions: read-out: Class D OXA-48 60 min IC50, nitrocefin 100 μM
Description: A buffer consisting of 0.1 M sodium phosphate (pH 7.0), 10 mM NaHCO3, and 0.005% Triton X-100 was used for all enzymes. The chromogenic substrate nitrocefin (SynGene, Bangalore, India) was used at 100 μM. Enzyme activity was monitored by the 490 nm absorbance increase upon nitrocefin hydrolysis. […] Absorbance was measured for 1 hour at 30-s intervals using a Spectramax absorbance plate reader (Molecular Devices, Sunnyvale, Calif.). […]
Counter-ions that a name gives are not always drawn.
Recorded IC50 by entry
Entry rule: numbers only, all in nM.

Study these solved cases before continuing.
CC1=C[C@@H]2CN(C(=O)N2O[C@@H](F)C(=O)O)[C@@H]1CNC(=O)OC(C)(C)C [Example 76, lithium salt]; 220
CC1=C[C@@H]2CN(C(=O)N2O[C@@H](F)C(=O)O)[C@@H]1C(=O)NCO [Example 87, lithium salt]; 11

CC1=C[C@@H]2CN(C(=O)N2O[C@@H](F)C(=O)O)[C@@H]1C(N)=O [Example 3, lithium salt] tested on OXA-48 (Class D beta-lactamase) (Klebsiella pneumoniae) gave IC50: 15

CC1=C[C@@H]2CN(C(=O)N2O[C@@H](F)C(=O)O)[C@@H]1CNC(=O)C(F)(F)F [Example 79, lithium salt] tested on OXA-48 (Class D beta-lactamase) (Klebsiella pneumoniae) gave IC50: 5700

NC(=O)[C@@H]1C(C2CC2)=C[C@@H]2CN1C(=O)N2O[C@H](F)C(=O)O [Example 41, lithium salt] tested on OXA-48 (Class D beta-lactamase) (Klebsiella pneumoniae) gave IC50: 6.4

CC1=C[C@@H]2CN(C(=O)N2O[C@H](F)C(=O)O)[C@@H]1C(N)=O [Example 4, lithium salt] tested on OXA-48 (Class D beta-lactamase) (Klebsiella pneumoniae) gave IC50: 15

CC1=C[C@@H]2CN(C(=O)N2O[C@@H](F)C(=O)O)[C@@H]1C(=O)NOCCS(N)(=O)=O [Example 56, lithium salt] tested on OXA-48 (Class D beta-lactamase) (Klebsiella pneumoniae) gave IC50: 220

O=C(O)C(F)ON1C(=O)N2C[C@H]1CC[C@H]2C(=O)NC1CCNCC1 (some centres unmarked) [Comparator 99, reference compound] tested on OXA-48 (Class D beta-lactamase) (Klebsiella pneumoniae) gave IC50: 82000

CC(=O)NCNC(=O)[C@@H]1C(C)=C[C@@H]2CN1C(=O)N2O[C@@H](F)C(=O)O [Example 88, lithium salt] tested on OXA-48 (Class D beta-lactamase) (Klebsiella pneumoniae) gave IC50: 45

CC1=C[C@@H](C#N)N2C[C@@H]1N(O[C@H](F)C(=O)O)C2=O [Example 95, lithium salt] tested on OXA-48 (Class D beta-lactamase) (Klebsiella pneumoniae) gave IC50: 1.3

CC1=C[C@@H]2CN(C(=O)N2O[C@@H](F)C(=O)O)[C@@H]1C(=O)NC1COC1 [Example 66, lithium salt] tested on OXA-48 (Class D beta-lactamase) (Klebsiella pneumoniae) gave IC50: 12
